Data origin: patent US4902814A

- System: Tetranychus urticae (spider mites - adults)
- assay summary: Mortality test on Tetranychus urticae adults (TUa), contact
- Assay type: in vivo
- reported conditions: topical, 72 h, rate 500 ppm, French bean leaf, contact, 3 days, read-out: TUa grading of mortality
mortality at 500 ppm listing for selected molecules.
parameter measured: mortality at 500 ppm

>>> print(df.to_string())
                                   molecule                     target_or_test_system  endpoint_value
0  CC1(C)[C@H](C=C(C(F)(F)F)C(F)(F)F)[C@H]1C(=O)OCc1ccc(F)c(Cc2ccccc2)c1 (relative stereo) [IX]  Tetranychus urticae (spider mites - adults)      80 to 100%
1  CC(C)=CC1C(C(=O)OCc2ccc(F)c(Cc3ccccc3)c2)C1(C)C (stereo not drawn) [VIII]  Tetranychus urticae (spider mites - adults)           < 50%
2  CC(OC(=O)C1C(C=C(Cl)C(F)(F)F)C1(C)C)c1ccc(F)c(Cc2ccccc2)c1 (stereo not drawn) [XIII]  Tetranychus urticae (spider mites - adults)      80 to 100%
3  CC1(C)[C@H](/C=C(\Cl)C(F)(F)F)[C@@H]1C(=O)OCc1ccc(F)c(Cc2ccccc2)c1 (relative stereo) [I]  Tetranychus urticae (spider mites - adults)      80 to 100%
4  CC1(C)[C@H](C(=O)OC(C#N)c2ccc(F)c(Cc3ccccc3)c2)[C@@H]1/C=C(\Cl)C(F)(F)F (relative stereo) [II]  Tetranychus urticae (spider mites - adults)      80 to 100%
5  CC1(C)[C@H](C(=O)OCc2ccc(F)c(Cc3ccccc3)c2)[C@@H]1/C=C(\Cl)C(F)(F)F [V]  Tetranychus urticae (spider mites - adults)      80 to 100%

----------
- Tested on: Blattella germanica (cockroach nymphs)
- assay summary: Mortality test on Blattella germanica (BG), residual
- Format: in vivo
- reported conditions: 72 h, read-out: BG grading of mortality
parameter measured: mortality at 500 ppm

In [3]: df
Out[3]:
                                   compound    parameter_measured  endpoint_value
0  CC(OC(=O)C1C(C=C(Cl)C(F)(F)F)C1(C)C)c1ccc(F)c(Cc2ccccc2)c1 (stereo not drawn) [XIII]  mortality at 500 ppm      80 to 100%
1  CC1(C)[C@H](/C=C(\Cl)C(F)(F)F)[C@@H]1C(=O)OCc1ccc(F)c(Cc2ccccc2)c1 (relative stereo) [I]  mortality at 500 ppm      80 to 100%
2  CC1(C)[C@H](C(=O)OC(C#N)c2ccc(F)c(Cc3ccccc3)c2)[C@@H]1/C=C(\Cl)C(F)(F)F (relative stereo) [II]  mortality at 500 ppm      80 to 100%
3  CC1(C)C(C=C(Br)Br)C1C(=O)OCc1ccc(F)c(Cc2ccccc2)c1 (racemic) [X]  mortality at 500 ppm      80 to 100%
4  CC(C)=CC1C(C(=O)OCc2ccc(F)c(Cc3ccccc3)c2)C1(C)C (stereo not drawn) [VIII]  mortality at 500 ppm           < 50%
5  CC1(C)[C@H](C=C(C(F)(F)F)C(F)(F)F)[C@H]1C(=O)OCc1ccc(F)c(Cc2ccccc2)c1 (relative stereo) [IX]  mortality at 500 ppm      80 to 100%
